Test: Plasma pharmacokinetics after multiple doses (cycle 2, steady state), LC-MS/MS
Type: in vivo, human
Conditions: human, plasma, oral, multiple dose, Schedule B; read-out: Mean effective T1/2, range
Procedure: At C1D1 in every dosing schedule cohort, a single dose was administered followed by 168 h (i.e., 7 days) of intensive PK sampling. Following cycle 1, the multiple-dose treatment schedules (described above) began in cycle 2. […] PK assessments were evaluated for BMS-986158 and its metabolite using plasma samples at regular intervals. Both the parent and metabolite samples were simultaneously analyzed using a validated liquid chromatography and tandem mass spectrometry assay. […]

Compound | half-life
Cc1nnn(C)c1-c1cnc2c3ccc(C(C)(C)O)cc3n([C@H](c3ccccc3)C3CCOCC3)c2c1 [BMS-986158] | 14.4 to 37.3 h
